- test_target: UniProt:P22607
- Sequence (P22607 whole entry): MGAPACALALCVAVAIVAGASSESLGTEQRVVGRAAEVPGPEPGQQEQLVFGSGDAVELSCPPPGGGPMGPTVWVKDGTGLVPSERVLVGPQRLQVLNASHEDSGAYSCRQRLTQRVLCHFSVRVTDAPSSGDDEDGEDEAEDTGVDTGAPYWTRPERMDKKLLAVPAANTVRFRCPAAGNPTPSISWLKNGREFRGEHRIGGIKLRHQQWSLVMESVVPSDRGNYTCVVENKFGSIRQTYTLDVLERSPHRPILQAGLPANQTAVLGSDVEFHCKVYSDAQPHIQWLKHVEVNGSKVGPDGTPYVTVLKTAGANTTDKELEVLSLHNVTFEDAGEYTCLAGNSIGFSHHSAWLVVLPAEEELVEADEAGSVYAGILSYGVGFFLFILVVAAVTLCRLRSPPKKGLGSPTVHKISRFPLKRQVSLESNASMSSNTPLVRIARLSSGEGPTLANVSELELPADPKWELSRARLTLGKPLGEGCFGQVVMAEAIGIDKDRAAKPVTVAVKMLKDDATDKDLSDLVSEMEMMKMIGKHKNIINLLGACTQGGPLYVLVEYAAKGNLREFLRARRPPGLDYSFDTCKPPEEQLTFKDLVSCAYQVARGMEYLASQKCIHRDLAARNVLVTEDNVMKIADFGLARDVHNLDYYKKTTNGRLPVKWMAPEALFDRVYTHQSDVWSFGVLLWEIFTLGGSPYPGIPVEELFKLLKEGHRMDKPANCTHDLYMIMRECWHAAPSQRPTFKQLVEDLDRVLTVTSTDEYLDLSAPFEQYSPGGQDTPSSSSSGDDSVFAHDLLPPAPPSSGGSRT
measurement_kind: IC50

- C=CC(=O)Nc1cc2c(cc1-c1n[nH]c3ccc(O[C@H](C)c4c(Cl)cncc4Cl)cc13)CCN(C)C2: > 3 mM

* * *

- protocol: MRT (0 to t) in Sprague-Dawley rat at 10 mg/kg, po by LC-MS/MS analysis
- Assay type: ADME, organism-based
- particulars: in vivo
measurement_kind: MRT last

* C=CC(=O)Nc1cc2c(cc1-c1n[nH]c3ccc(O[C@H](C)c4c(Cl)cncc4Cl)cc13)CCN(C)C2 | 3.04 h

* * *

- protocol: Oral bioavailability in Sprague-Dawley rat at 10 mg/kg by LC-MS/MS analysis
- Format: ADME, organism-based
- particulars: in vivo
measurement_kind: bioavailability

* C=CC(=O)Nc1cc2c(cc1-c1n[nH]c3ccc(O[C@H](C)c4c(Cl)cncc4Cl)cc13)CCN(C)C2 | 1.36%

* * *

Fibroblast growth factor receptor 4 (Homo sapiens, UniProt P22455) measurements of IC50, listed per entry.
Sequence (P22455 whole entry): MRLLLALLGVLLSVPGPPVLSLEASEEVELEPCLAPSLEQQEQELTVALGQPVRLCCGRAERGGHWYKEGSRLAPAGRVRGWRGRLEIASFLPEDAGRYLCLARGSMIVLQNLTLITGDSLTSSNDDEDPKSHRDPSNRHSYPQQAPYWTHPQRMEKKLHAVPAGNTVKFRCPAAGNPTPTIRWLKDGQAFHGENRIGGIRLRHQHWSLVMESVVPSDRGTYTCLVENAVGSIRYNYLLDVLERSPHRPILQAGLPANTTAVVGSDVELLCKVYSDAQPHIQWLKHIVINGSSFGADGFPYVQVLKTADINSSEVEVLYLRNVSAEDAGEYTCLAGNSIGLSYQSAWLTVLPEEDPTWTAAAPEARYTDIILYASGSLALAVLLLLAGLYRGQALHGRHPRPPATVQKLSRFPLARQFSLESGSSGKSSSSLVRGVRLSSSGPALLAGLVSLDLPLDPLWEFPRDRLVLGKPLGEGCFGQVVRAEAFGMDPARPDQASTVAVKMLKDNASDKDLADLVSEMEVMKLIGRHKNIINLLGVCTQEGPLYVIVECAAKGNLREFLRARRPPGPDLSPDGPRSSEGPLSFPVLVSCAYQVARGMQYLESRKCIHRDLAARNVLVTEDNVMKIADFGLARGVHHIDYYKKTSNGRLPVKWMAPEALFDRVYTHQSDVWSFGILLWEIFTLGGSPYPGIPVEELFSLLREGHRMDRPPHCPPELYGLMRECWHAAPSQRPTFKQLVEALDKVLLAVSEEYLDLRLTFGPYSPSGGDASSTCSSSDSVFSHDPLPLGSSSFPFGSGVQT
measurement_kind: IC50 (nM)

- C=CC(=O)Nc1ccccc1-c1n[nH]c2ccc(OCc3c(Cl)cccc3Cl)cc12: 764
- C=CC(=O)Nc1ccccc1-c1n[nH]c2ccc(OCc3ccncc3)cc12: 243
- C=CC(=O)Nc1cc2c(cc1-c1n[nH]c3ccc(O[C@H](C)c4c(Cl)cncc4Cl)cc13)CCN(CCOC)C2: 2.5
- C=CC(=O)Nc1ccc(F)cc1-c1n[nH]c2ccc(O[C@H](C)c3c(Cl)cncc3Cl)cc12: 3.2
- C=CC(=O)Nc1ccccc1-c1n[nH]c2ccc(OC(C)c3c(F)cncc3F)cc12 (stereo not given): 42

* * *

Entries and their pIC50 values follow.
- protocol: Antiproliferative activity against human L02 cells measured after 24 to 48 hrs by MTT assay
- Format: toxicity, cell-based
pIC50: −log10 of the molar value.
measurement_kind: pIC50

- C=CC(=O)Nc1ccc(N2CCN(C)CC2)cc1-c1n[nH]c2ccc(O[C@H](C)c3c(Cl)cncc3Cl)cc12: 5.37
- C=CC(=O)Nc1cc(N2CCOCC2)ccc1-c1n[nH]c2ccc(O[C@H](C)c3c(Cl)cncc3Cl)cc12: < 5.00
- C=CC(=O)Nc1ccc(N2CCOCC2)cc1-c1n[nH]c2ccc(O[C@H](C)c3c(Cl)cncc3Cl)cc12: < 5.00
- C=CC(=O)Nc1cc(N2CCN(C)CC2)ccc1-c1n[nH]c2ccc(O[C@H](C)c3c(Cl)cncc3Cl)cc12: 5.40
- C=CC(=O)Nc1cc2c(cc1-c1n[nH]c3ccc(O[C@H](C)c4c(Cl)cncc4Cl)cc13)CCN(CCO)C2: < 5.00
- C=CC(=O)Nc1cc2c(cc1-c1n[nH]c3ccc(O[C@H](C)c4c(Cl)cncc4Cl)cc13)CCN(C)C2: < 5.00
- C=CC(=O)N[C@H]1CCOC[C@H]1Nc1ncc2cc(-c3c(Cl)c(OC)cc(OC)c3Cl)ccc2n1: < 5.00

* * *

- protocol: Cmax in Sprague-Dawley rat at 2 mg/kg, iv by LC-MS/MS analysis
- Type: ADME, organism-based
- particulars: in vivo
measurement_kind: Cmax (ng/mL)

- C=CC(=O)Nc1cc2c(cc1-c1n[nH]c3ccc(O[C@H](C)c4c(Cl)cncc4Cl)cc13)CCN(C)C2: 214

* * *

- protocol: Cmax in Sprague-Dawley rat at 10 mg/kg, po by LC-MS/MS analysis
- Format: ADME, organism-based
- particulars: in vivo
measurement_kind: Cmax

• C=CC(=O)Nc1cc2c(cc1-c1n[nH]c3ccc(O[C@H](C)c4c(Cl)cncc4Cl)cc13)CCN(C)C2 = 4.91 ng/mL
